Target: T1, human His6-GITR (human, UniProt Q9Y5U5 26-162)
T1 construct: His6-tagged recombinant protein; also called hGITR-His; human GITR-His
T1 sequence: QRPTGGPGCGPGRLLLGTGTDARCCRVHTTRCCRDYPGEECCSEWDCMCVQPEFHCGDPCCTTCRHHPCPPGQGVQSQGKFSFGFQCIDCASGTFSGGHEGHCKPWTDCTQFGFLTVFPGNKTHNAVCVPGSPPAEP
Experiment: ELISA, scFv periplasmic extract on coated His6-GITR
recorded-metric: hGITR-His/BKG (fold over background)
Number only, in fold over background; omit the unit.

binder	recorded-metric	units-label	measurement
GITR-Mab-16 scFv (scFv, V domains shown, scFv in periplasmic extract, V5 tag) VH: QVQLVQSGAEVKKPGASVKVSCKASGGTLSSYAISWVRQAPGQGLEWMGWIDPNSGGTNYAQKFQGRVTMTRDTSTSTVYMELSSLRSEDTAVYYCARQGLLWFGESGSIYYYYGMDVWGQGTTVTVSS VL: DIQMTQSPSSLSASVGDRVTITCRASRSISNYLNWYQQKPGKAPKLLIYGASSLQSGVPSRFSGSGSGTDFTLTISSLQPEDFATYYCQQSYSTLVTFGQGTKVEIK	hGITR-His/BKG	fold over background	24.1

Give the reported value of hGITR-His/BKG for this record: GITR-Mab-21 scFv (scFv, V domains shown, scFv in periplasmic extract, V5 tag) VH: EVQLLESGGGLVQPGGSLRLSCAASGFTFSNHYMSWVRQAPGKGLEWVAVIALDGSYRYYADSVKGRFTISRDNSKNTLYLQMNSLRAEDTAVYYCARVGPGGMDVRGQGTTVTVSS VL: DIQMTQSPSSLSASVGDRVTITCQASQDISNYLNWYQQKPGKAPKLLIYAASSLQSGVPSRFSGSGSGTDFTLTISSLQPEDFATYYCQQSYNSPRVYTFGQGTKVEIK 13.5
